Data credit: ChEMBL document CHEMBL6103583

- Tested on: Salmonella typhimurium
- PROTOCOL DETAILS: Antibacterial activity against Salmonella Typhimurium KCCM 11806 assessed as reduction in bacterial growth incubated for 12 hrs by micro-dilution method
- Type: functional, Salmonella enterica subsp. enterica serovar Typhimurium
- CONDITION NOTES: Salmonella enterica
OBSERVED PROPERTY: MIC

SMILES DATA	OBSERVED PROPERTY	VALUE OBSERVED
N[C@@H](Cc1ccccc1)C(=O)O	MIC	4 µg/mL
N[C@@H](CS)C(=O)O	MIC	8 µg/mL
N[C@H](Cc1ccccc1)C(=O)O	MIC	8 µg/mL
N[C@@H](Cc1ccc(O)cc1)C(=O)O	MIC	16 µg/mL
N[C@H](Cc1ccc(O)cc1)C(=O)O	MIC	4 µg/mL
